The compounds listed here are annotated with their pIC50.
target: rat EP1 receptor (Rattus norvegicus, UniProt P70597); experiment: Test for confirming EP1 receptor antagonistic effect: suppression of prostaglandin E2-induced rise in intracellular calcium concentration; conditions: rat EP1 receptor-expressing COS-1 cells; prostaglandin E2 10 nM; Fluo 4-AM fluorescent signal; test compound 0.1 nM to 10 μM
Sequence (P70597 whole entry): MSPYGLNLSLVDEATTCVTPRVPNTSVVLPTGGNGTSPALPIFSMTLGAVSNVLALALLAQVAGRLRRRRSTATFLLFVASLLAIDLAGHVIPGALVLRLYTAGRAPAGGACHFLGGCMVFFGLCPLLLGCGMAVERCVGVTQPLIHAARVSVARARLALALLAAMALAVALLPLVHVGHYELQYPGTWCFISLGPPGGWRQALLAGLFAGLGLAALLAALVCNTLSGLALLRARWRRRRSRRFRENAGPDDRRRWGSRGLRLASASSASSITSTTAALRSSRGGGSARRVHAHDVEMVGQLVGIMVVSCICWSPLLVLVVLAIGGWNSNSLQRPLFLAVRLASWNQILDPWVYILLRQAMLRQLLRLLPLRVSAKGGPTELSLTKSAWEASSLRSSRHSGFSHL
pIC50: −log10 of the molar value.
OBSERVED_PROPERTY: pIC50

1) O=C(O)c1cccc(Cc2c(-c3cccc(F)c3)nn3cc(Cl)ccc23)n1 7.41
2) Cc1ccc2c(Cc3cccc(C(=O)O)n3)c(-c3ccccc3)nn2c1 7.72
3) COc1ccc2c(Cc3cccc(C(=O)O)n3)c(-c3ccccc3)nn2c1 8.22
4) COc1ccc2c(Cc3ccc(C(=O)O)o3)c(-c3ccccc3)nn2c1 7.22
5) C=Cc1ccc2c(Cc3cccc(C(=O)O)n3)c(-c3ccccc3)nn2c1 7.68
6) O=C(O)c1csc(Cc2c(-c3ccccc3)nn3cc(Cl)ccc23)n1 6.96
7) COc1ccc2c(Cc3cccc(C(=O)O)n3)c(C(C)(C)C)nn2c1 7.41
8) Clc1ccc2c(Cc3cccc(-c4nnn[nH]4)n3)c(-c3ccccc3)nn2c1 8.60
9) CC1(c2nn3cc(Cl)ccc3c2Cc2cccc(C(=O)O)n2)CC1 6.80

---

target: rat EP1 receptor (Rattus norvegicus, UniProt P70597); construct: expressed in transfected cells; assay: Test for confirming EP1 receptor antagonistic effect: suppression of prostaglandin E2-induced rise in intracellular calcium concentration; assay type: cell-based; settings: rat EP1 receptor-expressing COS-1 cells; prostaglandin E2 10 nM; Fluo 4-AM fluorescent signal; test compound 0.1 nM to 10 μM
pIC50: −log10 of the molar value.
OBSERVED_PROPERTY: pIC50

1) O=C(O)c1cccc(Cc2c(-c3ccccc3)nn3cc(Cl)ccc23)c1 7.54
2) O=C(O)c1cccc(Cc2c(-c3ccccc3)nn3cc(C(F)(F)F)ccc23)n1 7.72
3) O=C(O)c1cccc(Cc2c(-c3ccccc3)nn3cc(Cl)ccc23)n1 8.10
4) COc1ccc2c(Cc3cccc(C(=O)O)n3)c(-c3ccsc3)nn2c1 7.37
5) COc1ccc2c(Cc3cccc(C(=O)O)n3)c(-c3ccc(F)cc3)nn2c1 7.80
6) CC(C)(C)c1nn2cc(Cl)ccc2c1Cc1cccc(C(=O)O)n1 7.32
7) CSc1ccc2c(Cc3cccc(C(=O)O)n3)c(-c3ccccc3)nn2c1 7.06
8) O=C(O)c1cccc(Cc2c(-c3ccccc3)nn3cc(Br)ccc23)n1 7.96
9) CS(=O)(=O)NC(=O)c1cccc(Cc2c(-c3ccccc3)nn3cc(Cl)ccc23)n1 7.21
10) S=c1[nH]c(-c2cccc(Cc3c(-c4ccccc4)nn4cc(Cl)ccc34)n2)no1 7.15
11) O=C(O)c1cccc(Cc2c(N3CCCCC3)nn3cc(Cl)ccc23)n1 7.10
12) O=c1[nH]c(-c2cccc(Cc3c(-c4ccccc4)nn4cc(Cl)ccc34)n2)no1 7.34
13) COc1ccc2c(Cc3cccc(C(=O)O)n3)c(C3CCCC3)nn2c1 6.77
14) COc1ccc2c(Cc3cccc(-c4nnn[nH]4)n3)c(-c3ccccc3)nn2c1 7.25
15) COc1ccc2c(Cc3cccc(C(=O)O)n3)c(-c3cccc(F)c3)nn2c1 8.54
16) COc1ccc2c(Cc3cccc(C(=O)O)c3)c(-c3ccccc3)nn2c1 7.96

Origin of the recorded values: patent US20130331378A1
